Target: T1, ArnR1 (Sulfolobus acidocaldarius, UniProt Q4J9L2 1-269)
T1 sequence: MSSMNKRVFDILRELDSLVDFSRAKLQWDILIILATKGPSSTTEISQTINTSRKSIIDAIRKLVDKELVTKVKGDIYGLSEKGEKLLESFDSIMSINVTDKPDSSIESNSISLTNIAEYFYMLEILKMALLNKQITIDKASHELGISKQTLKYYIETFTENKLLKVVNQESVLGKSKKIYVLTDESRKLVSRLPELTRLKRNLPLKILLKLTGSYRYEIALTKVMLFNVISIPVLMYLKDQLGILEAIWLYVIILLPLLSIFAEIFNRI
Experiment: MST; MST: 2.5 nM labeled dsDNA, 0.156-18 uM protein, 24 C, 10 min incubation; DNA annealed in 20 mM Tris/HCl pH 8, 200 mM NaCl, 0.05% DDM; protein in 20 mM Tris/HCl
Details: protein: recombinant; tags: N-terminal His10; label: 5' Alexa Fluor 647; blunt
measurement-name: pKd
Scale: negative log10 of molar concentration, which is what pKd denotes.

Give a short answer stating reported pKd for pflaB41 (dsDNA) DNA 1: ACGTCGATCAGCAGTCGAAAAATTGTGATTTTTGGTCGAAG DNA 2: CTTCGACCAAAAATCACAATTTTTCGACTGCTGATCGACGT .
5.48
